Target: delta receptor (Rattus norvegicus, UniProt P33533)
Sequence (P33533 whole entry): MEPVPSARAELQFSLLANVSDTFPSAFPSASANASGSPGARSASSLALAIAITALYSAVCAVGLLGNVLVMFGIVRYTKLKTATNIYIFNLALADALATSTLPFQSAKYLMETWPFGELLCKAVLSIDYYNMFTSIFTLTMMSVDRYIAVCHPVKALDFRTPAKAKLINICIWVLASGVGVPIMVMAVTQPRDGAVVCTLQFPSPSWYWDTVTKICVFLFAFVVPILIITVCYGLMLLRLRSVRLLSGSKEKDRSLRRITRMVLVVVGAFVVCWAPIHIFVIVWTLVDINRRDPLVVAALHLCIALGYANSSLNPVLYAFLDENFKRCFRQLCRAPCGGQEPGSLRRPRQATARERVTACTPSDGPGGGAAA
Experiment: Radioligand binding, delta assay (3H-DSLET displacement with DAGO block, rat brain P2 homogenate)

compound: CN1CC[C@]23c4c5ccc(O)c4O[C@H]2[C@@H](O[C@@H]2O[C@H](C(=O)O)[C@@H](O)[C@H](O)[C@H]2O)C=C[C@H]3[C@H]1C5 [M6G, morphine 6-glucuronide]
system-tested: delta receptor (Rattus norvegicus, UniProt P33533)
IC50: 75 nM

* * *

Molecular target: mu 2 receptor (Rattus norvegicus, UniProt P33535)
Sequence (P33535 whole entry): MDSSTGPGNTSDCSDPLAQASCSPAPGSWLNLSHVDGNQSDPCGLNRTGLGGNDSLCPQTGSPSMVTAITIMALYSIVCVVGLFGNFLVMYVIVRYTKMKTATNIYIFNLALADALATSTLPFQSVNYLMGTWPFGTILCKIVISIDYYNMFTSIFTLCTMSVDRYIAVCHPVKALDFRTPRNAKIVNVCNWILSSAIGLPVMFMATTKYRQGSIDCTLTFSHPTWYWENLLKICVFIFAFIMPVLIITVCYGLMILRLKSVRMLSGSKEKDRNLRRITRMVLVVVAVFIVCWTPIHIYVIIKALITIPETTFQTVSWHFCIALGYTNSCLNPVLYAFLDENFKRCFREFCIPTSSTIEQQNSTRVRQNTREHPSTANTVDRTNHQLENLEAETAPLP
Assay: biochemical
Settings: IC50 mu 2 receptor, whole brain preparations, P2 fraction of whole rat brain homogenate, single assay
recorded-metric: IC50 (nM)

compound: CN1CC[C@]23c4c5ccc(O)c4O[C@H]2[C@@H](O[C@@H]2O[C@H](C(=O)O)[C@@H](O)[C@H](O)[C@H]2O)C=C[C@H]3[C@H]1C5 [M6G, morphine 6-glucuronide]
system-tested: mu 2 receptor (Rattus norvegicus, UniProt P33535)
numeric-value: 66

* * *

Target: mu 2 receptor (Rattus norvegicus)
Assay: biochemical
Conditions: IC50 mu 2 receptor, brain minus hypothalami, P2 fraction, 3H-DAGO 1.5 nM, DSLET 5 nM block; mean ± SEM
recorded-metric: IC50 (nM)

molecule: CN1CC[C@]23c4c5ccc(O)c4O[C@H]2[C@@H](O[C@@H]2O[C@H](C(=O)O)[C@@H](O)[C@H](O)[C@H]2O)C=C[C@H]3[C@H]1C5 [M6G, morphine 6-glucuronide]
unit-text: nM
numeric-value: 82
